System: PPARa:RXRa (NR concentration 270 nM, RXRa partner concentration 90 nM)
procedure.text: PBM binding z-score (relative to random genomic background probes); higher = stronger binding; sequences stand for … in GC…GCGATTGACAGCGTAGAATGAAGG
Values of PBM binding z-score greater than or equal to 2 map to label 1; values below map to label 0.

>  <construct.sequence>
TCTTGTAGATCAATAGAGGTTAAGAACGTGCGCT

>  <assigned.class>
label 0

$$$$
>  <construct.sequence>
ATCGAAAGGTCGAGGTGAGTATGGAGAAAGGGAA

>  <assigned.class>
label 1

$$$$
>  <construct.sequence>
TCATATAGGTAATACAGGCGAAAGTCGGCATCTA

>  <assigned.class>
label 0

$$$$
>  <construct.sequence>
GCGACTGGGGCATCAGCAGGTTACCACAACTTAA

>  <assigned.class>
label 0

$$$$
>  <construct.sequence>
GCCTACGGGTCAAAGGTTATAGCATGAATAGAAT

>  <assigned.class>
label 1

$$$$
>  <construct.sequence>
TCATATAGGTAAAGCTGAAAGTCGAACGATATGA

>  <assigned.class>
label 0

$$$$
>  <construct.sequence>
AGAATCAGGTTACCAAAGATCAGGGAAACGCTTG

>  <assigned.class>
label 0

$$$$
>  <construct.sequence>
CCTCCTGGGCCATTCAGAGGTCATTGATCATATG

>  <assigned.class>
label 1

$$$$
>  <construct.sequence>
TAGTCTAGGTCATTCAGGGGCCAGTATAGAAAGC

>  <assigned.class>
label 1

$$$$
>  <construct.sequence>
TAGCCTAGGTCAGATCGGGCCTGTATACGCTATA

>  <assigned.class>
label 0

$$$$
>  <construct.sequence>
TCATATAGGTAAACAGGTGAAAGACCGTAAGTTA

>  <assigned.class>
label 1

$$$$
>  <construct.sequence>
CCGACTGGTGCAAGGTTACCATAACGCACAGCCA

>  <assigned.class>
label 0

$$$$
>  <construct.sequence>
TCAGACAGGTGAAGGTAACTGAGGTACGCAGTCG

>  <assigned.class>
label 0

$$$$
>  <construct.sequence>
CCTTTCGGGTCAAGGTTATAGCACGGGTGGTACG

>  <assigned.class>
label 1

$$$$
>  <construct.sequence>
CCTGCCAGGTCAATGGTCAGCTAAAGCAGCTCGC

>  <assigned.class>
label 1

$$$$
>  <construct.sequence>
TCTCGGAGGACACGAAGGGTCAGAGCTCGACATC

>  <assigned.class>
label 1

$$$$

---

Measured PBM binding z-score of individual entries
System: PPARg:RXRa (NR concentration 180 nM, RXRa partner concentration 90 nM)
procedure.text: PBM binding z-score (relative to random genomic background probes); higher = stronger binding; sequences stand for … in GC…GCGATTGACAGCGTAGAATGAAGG
measurement.kind: PBM binding z-score

>  <construct.sequence>
GCGACTGGGACATCAGCAGGTTACCATAACTTAA

>  <measurement.kind>
PBM binding z-score

>  <measured>
0.495

$$$$
>  <construct.sequence>
CAAACTAGGTCAAAGCTCAAAGTCGAGCCAACCA

>  <measurement.kind>
PBM binding z-score

>  <measured>
10.2

$$$$
>  <construct.sequence>
CCAGACAGGTGAGAAGATAACTCAGCCTCGATTA

>  <measurement.kind>
PBM binding z-score

>  <measured>
0.576

$$$$
>  <construct.sequence>
AATACAGGGTCATCGTAGGCCACAGTACGCACAG

>  <measurement.kind>
PBM binding z-score

>  <measured>
7.16

$$$$
>  <construct.sequence>
CCGACTGGGGCAAAGGTTCCCATACTCAGTACGA

>  <measurement.kind>
PBM binding z-score

>  <measured>
7.57

$$$$

---

Tested on: PPARg:RXRa DBDmut IVT, anti-RXR (DBD mutation: RXRa K156A/R161A, NR concentration 270 nM, RXRa partner concentration 90 nM)
procedure.text: PBM binding z-score (relative to random genomic background probes); higher = stronger binding; sequences stand for … in GC…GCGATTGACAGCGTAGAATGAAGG
Classify by measured PBM binding z-score: TRUE if it is equal to or exceeds 1, FALSE if it is smaller.

>  <construct.sequence>
GCACACAGGTGAAACGCAGGTAACTCAGGGTGGC

>  <assigned.class>
TRUE

$$$$
>  <construct.sequence>
CCTACTGGGCCACGGTCATTGATCAGTCAAAGCA

>  <assigned.class>
TRUE

$$$$
>  <construct.sequence>
ATCTCTAGGTAACCAAGTTCAGTGGATGCCGAAC

>  <assigned.class>
TRUE

$$$$
>  <construct.sequence>
GATACAGGGTCAAGGACAGAGTACGCGTATTGAT

>  <assigned.class>
TRUE

$$$$
>  <construct.sequence>
AGAATGAGCTTATTAAGATCAGGGAATTGCGGTC

>  <assigned.class>
FALSE

$$$$
>  <construct.sequence>
CAGCCTAGGTCACGGCCAGTATAGGAGGAACGTT

>  <assigned.class>
TRUE

$$$$
>  <construct.sequence>
ACAGACATGTGATGAAGGTAACTCAGGCTATCAT

>  <assigned.class>
FALSE

$$$$
>  <construct.sequence>
ATCTCTAGGTAACAAGTTCTGTGAAAGAGAGGAC

>  <assigned.class>
TRUE

$$$$
>  <construct.sequence>
CAAACTAGGTAACGAAAGGTCAAAGTCGAATGAC

>  <assigned.class>
TRUE

$$$$
>  <construct.sequence>
ATATGTACGTTAAGGGTCATTCAGGTTGGTTCGC

>  <assigned.class>
FALSE

$$$$
>  <construct.sequence>
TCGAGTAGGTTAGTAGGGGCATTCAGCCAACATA

>  <assigned.class>
TRUE

$$$$
>  <construct.sequence>
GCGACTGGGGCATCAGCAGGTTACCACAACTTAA

>  <assigned.class>
TRUE

$$$$
>  <construct.sequence>
TCGTGTAGGTTAGGGGCATTCAGAATGGCGTCGA

>  <assigned.class>
TRUE

$$$$
>  <construct.sequence>
CCAGACAGGTTAGAAGGTAACTCAGCCTCGATTA

>  <assigned.class>
FALSE

$$$$
>  <construct.sequence>
CAAACTAGGTCACCAAAGGTCAAAGTCGAATGAC

>  <assigned.class>
TRUE

$$$$
>  <construct.sequence>
CAGTCTAGGTCAGGGCCAGTATAGGAGGAACGTT

>  <assigned.class>
TRUE

$$$$
>  <construct.sequence>
TAGCCTAGGTCATGCGGGCCAGTAAAGTGTCGGC

>  <assigned.class>
TRUE

$$$$
>  <construct.sequence>
TATACAGGGTCAAAAGCCAGAGTACGAATGTCGA

>  <assigned.class>
TRUE

$$$$
>  <construct.sequence>
TGAATGAGGTTAAAGATCACGGAACGTGGCGTCG

>  <assigned.class>
TRUE

$$$$
>  <construct.sequence>
GCTCGGAGGACAAGGTCAGAACTTTGTCCGTAGA

>  <assigned.class>
FALSE

$$$$
>  <construct.sequence>
GCTCGCAGGACAAGGTCAGAGCTTTGTCCGTAGA

>  <assigned.class>
FALSE

$$$$
>  <construct.sequence>
GTAGCAAGGTGAATAGGTCGTTGATGAGTAGGCG

>  <assigned.class>
TRUE

$$$$
>  <construct.sequence>
CCTACTGGGCCAAAGGTCAATGATTCCAATGCTC

>  <assigned.class>
TRUE

$$$$
>  <construct.sequence>
ACTCGAAGGACAAAGGTCAGAGCTACGCCAGTGA

>  <assigned.class>
FALSE

$$$$
>  <construct.sequence>
TCATATAGGTAAATGCTAGGTGTAAGTCCGATCT

>  <assigned.class>
TRUE

$$$$
>  <construct.sequence>
AGAATGAGGTTACCATAGATCAGGGAAACGCTTG

>  <assigned.class>
TRUE

$$$$
>  <construct.sequence>
CCTCGTAGGACAACAGGAGGTCAGAGCTGCCAGA

>  <assigned.class>
FALSE

$$$$
>  <construct.sequence>
TGAATGAGGTTATAGATCAGGGAACGTGGCGTCG

>  <assigned.class>
TRUE

$$$$
>  <construct.sequence>
ACGAGTTGGTCAGCTGAGGTCACACACAATTCGG

>  <assigned.class>
FALSE

$$$$
>  <construct.sequence>
CCTTACGGGACACGAGGTTATAGCACGACGAGCG

>  <assigned.class>
FALSE

$$$$
>  <construct.sequence>
GCTGCTAGGTCAAATGATGGTCAGCTAAAGCTCG

>  <assigned.class>
TRUE

$$$$
>  <construct.sequence>
TCGAGCAGGTTAGTCGGGGCATTCAGCCAACATA

>  <assigned.class>
FALSE

$$$$
>  <construct.sequence>
CCTCACGGGTCACGAGGTTATAGCACGACGAGCG

>  <assigned.class>
TRUE

$$$$
>  <construct.sequence>
TAGCCTAGGTCAGATCAGGCCAGTATACGCTATA

>  <assigned.class>
FALSE

$$$$
>  <construct.sequence>
CCTACTGGGGCATCAGGTCATTGATATCAACGTT

>  <assigned.class>
TRUE

$$$$
>  <construct.sequence>
ATCTCTAGGTAAGACTCAGTGCAGTGAAGAACGC

>  <assigned.class>
TRUE

$$$$
>  <construct.sequence>
TCTATTAGTTGATTAGGTCAACCGAAACAGCGGA

>  <assigned.class>
TRUE

$$$$
>  <construct.sequence>
ACCGACAGGTGAGTGAAGGTAACTCAGCTGGACG

>  <assigned.class>
FALSE

$$$$
>  <construct.sequence>
GCTGCTAGGGCAGGTTGGTCAGCTAACGGGTACG

>  <assigned.class>
FALSE

$$$$
>  <construct.sequence>
CGCACGAGGGCATGAGTTGATAGCAAATGCCGAT

>  <assigned.class>
TRUE

$$$$
>  <construct.sequence>
ATATGTATGTTAAGGGTCATTCAGGTTGGTTCGC

>  <assigned.class>
TRUE

$$$$
>  <construct.sequence>
TGAATGAGGTTATAAGATTAGGGAACGTTGCAAA

>  <assigned.class>
TRUE

$$$$
>  <construct.sequence>
GCTGCTAGCTCAACTGATGGTCAGCTAAAGCTCG

>  <assigned.class>
FALSE

$$$$
>  <construct.sequence>
TGAATGAGGTTATAAAATCAGGGAACGTTGCAAA

>  <assigned.class>
FALSE

$$$$

Cited source for all entries: the supplement of paper PMC6555819
